Values compiled from ChEMBL document CHEMBL3991601.

# System under test: UniProt:Q13882
# Sequence (Q13882 whole entry): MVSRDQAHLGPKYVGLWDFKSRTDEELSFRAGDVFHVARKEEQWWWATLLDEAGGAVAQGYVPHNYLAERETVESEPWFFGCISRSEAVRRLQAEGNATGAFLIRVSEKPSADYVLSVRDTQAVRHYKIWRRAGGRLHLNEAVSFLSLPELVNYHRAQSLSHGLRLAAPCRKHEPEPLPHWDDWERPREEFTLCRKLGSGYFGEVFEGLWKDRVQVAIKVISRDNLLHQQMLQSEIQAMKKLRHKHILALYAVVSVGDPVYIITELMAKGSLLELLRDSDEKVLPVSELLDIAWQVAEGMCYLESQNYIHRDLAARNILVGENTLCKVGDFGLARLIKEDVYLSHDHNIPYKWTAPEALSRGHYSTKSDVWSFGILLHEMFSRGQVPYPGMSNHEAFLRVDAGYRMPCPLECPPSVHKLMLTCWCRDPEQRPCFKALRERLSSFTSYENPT
Activity calls are given as the source filed them.
Possible outcomes: active, inactive

Compound: OCCn1cc(-c2cnc3nnn(Cc4ccc5ncccc5c4)c3n2)cn1
Label: inactive
--
Compound: Cc1cc(-c2cc(O)ccc2Cl)cc2nnc(Nc3ccc(OCCN4CCCC4)cc3)nc12
Label: inactive
--
Compound: Cn1cc(-c2ccc(F)c(C(F)(F)F)c2)nc1C1CCN(c2ncnc3[nH]ncc23)CC1
Label: inactive
--
Compound: Cn1ncc(Cl)c1-c1cc(C(=O)N[C@H](CN)Cc2cccc(F)c2)sc1Cl
Label: inactive
--
Compound: Nc1nc(N)c2nc(-c3cccc(O)c3)c(-c3cccc(O)c3)nc2n1
Label: inactive
--
Compound: COC(=O)[C@@]1(O)C[C@H]2O[C@]1(C)n1c3ccccc3c3c4c(c5c6ccccc6n2c5c31)C(=O)NC4 [K-252A]
Label: inactive
--
Compound: C[C@@H]1CN(Cc2ccc(F)cc2)[C@@H](C)CN1C(=O)c1cc2c(C(=O)C(=O)N(C)C)cn(C)c2cc1Cl
Label: inactive
--
Compound: O=C1NC(=O)/C(=C/c2ccc3nccc(-c4ccncc4)c3c2)S1
Label: inactive
--
Compound: CN1CCC(CNc2ccc3ncc(-c4cccc(OC(F)(F)F)c4)n3n2)CC1
Label: inactive
--
Compound: Cc1ccc(-n2nc(C(C)(C)C)cc2NC(=O)NCc2cc(F)ccc2Oc2ccc3c(cnn3CCO)c2)cc1
Label: inactive
--
Compound: CN(C)C(=O)c1cc2cnc(Nc3ccc(N4CCNCC4)cn3)nc2n1C1CCCC1
Label: inactive
--
Compound: Cc1ccc(S(=O)(=O)Nc2nc3ccccc3nc2Nc2ccc3nsnc3c2)cc1
Label: inactive
--
Compound: C[C@@H](Nc1cc(F)cc(F)c1)c1cc(C(=O)N(C)C)cc2c(=O)cc(N3CCOCC3)oc12
Label: inactive
--
Compound: CNS(=O)(=O)Nc1nccc(Cc2c(C)c3ccc(Oc4ncccn4)cc3oc2=O)c1F
Label: inactive
--
Compound: COc1cc(OC)c(/C=C/S(=O)(=O)Cc2ccc(OC)c(NCC(=O)O)c2)c(OC)c1
Label: inactive
--
Compound: CC[C@@H]1C(=O)N(C)c2cnc(Nc3ccc(C(=O)N[C@H]4CC[C@H](N5CCN(CC6CC6)CC5)CC4)cc3OC)nc2N1C(C)C
Label: inactive
--
Compound: CC(=O)Nc1cccc(-n2c(=O)n(C3CC3)c(=O)c3c(Nc4ccc(I)cc4F)n(C)c(=O)c(C)c32)c1
Label: inactive
--
Compound: O=C(c1ccc(F)c(F)c1Nc1ccc(I)cc1F)N1CC(O)([C@@H]2CCCCN2)C1
Label: inactive
--
Compound: CCCS(=O)(=O)Nc1ccc(F)c(C(=O)c2c[nH]c3ncc(-c4ccc(Cl)cc4)cc23)c1F
Label: active
--
Compound: CNC(=O)c1ccc(C)c(-n2c(C)cc(OCc3ccc(F)cc3F)c(Br)c2=O)c1
Label: inactive
--
Compound: CN1CCC(COc2cnc(-c3cccc(Cn4nc(-c5cccc(C#N)c5)ccc4=O)c3)nc2)CC1
Label: inactive
--
Compound: CN1CC[C@@H](c2c(O)cc(O)c3c(=O)cc(-c4ccccc4Cl)oc23)[C@@H]1CO
Label: inactive
--
Compound: O=C(O)[C@]1(Cc2cccc(Nc3nccs3)n2)CC[C@@H](Oc2cccc(Cl)c2F)CC1
Label: active
--
Compound: Cn1cc(-c2ccc3nnc(C(F)(F)c4ccc5ncccc5c4)n3n2)cn1
Label: inactive
--
Compound: CNC(=O)c1ccc(-c2cnc3ncc(Cc4ccc5ncccc5c4)n3n2)cc1F
Label: inactive
--
Compound: COc1cc(CCc2cc(NC(=O)c3ccc(N4C[C@@H](C)N[C@@H](C)C4)cc3)n[nH]2)cc(OC)c1
Label: inactive
--
Compound: C1=C/COCc2cc(ccc2OCCN2CCCC2)Nc2nccc(n2)-c2cccc(c2)COC/1
Label: inactive
--
Compound: CCn1c(=O)c(-c2cc[nH]n2)cc2c(C)nc(N)nc21
Label: inactive
